Listed here are compounds together with their documented pKi.
target: κ opioid receptor (Homo sapiens); test: biochemical; format: binding; design: expressed in transfected cells; host or cells: HEK 293 (in-house membrane prep); settings: HEK-293 or CHO cells
Sequence (P41145 whole entry): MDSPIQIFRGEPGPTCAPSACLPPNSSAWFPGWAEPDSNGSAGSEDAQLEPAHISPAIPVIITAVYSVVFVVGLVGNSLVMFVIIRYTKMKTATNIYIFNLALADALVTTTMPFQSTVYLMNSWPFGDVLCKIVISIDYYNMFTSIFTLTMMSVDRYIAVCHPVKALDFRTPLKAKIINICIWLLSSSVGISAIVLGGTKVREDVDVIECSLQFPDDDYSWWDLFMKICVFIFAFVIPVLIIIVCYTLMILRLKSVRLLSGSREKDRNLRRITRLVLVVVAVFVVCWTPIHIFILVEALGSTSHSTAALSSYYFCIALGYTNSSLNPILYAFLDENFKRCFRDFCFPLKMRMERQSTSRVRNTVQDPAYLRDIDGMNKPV
pKi: −log10 of the molar value.
experimental.readout: pKi

compound	experimental.readout	value.reported
COc1ccc2c(c1)[C@@]1(C)CCN(C)C(C2)[C@@H]1N(C)C(=O)/C=C/c1ccoc1 [Compound 16]	pKi	6.73
CN(C(=O)Nc1ccc(C#N)cc1)[C@H]1C2Cc3ccc(O)cc3[C@@]1(C)CCN2Cc1cccc(F)c1F [Compound 89]	pKi	8.04
CN[C@@H]1[C@H]2Cc3ccc(OC)cc3[C@@]1(C)CCN2CC1CC1 [Compound 56]	pKi	6.77
CN1CC[C@]2(C)c3cc(O)ccc3CC1[C@@H]2CC(=O)N1CCC(C(=O)O)CC1 [Compound 72]	pKi	4.83
CN1CC[C@]2(C)c3cc(O)ccc3C[C@@H]1[C@H]2Nc1ccc(CCS(N)(=O)=O)cc1 [Compound 50]	pKi	7.23
CN(C(=O)Nc1ccc(C#N)cc1)[C@H]1C2Cc3ccc(O)cc3[C@@]1(C)CCN2CC1CCC1 [Compound 88]	pKi	8.32
CN1CC[C@]2(C)c3cc(O)ccc3C[C@@H]1[C@H]2N(C)C(=O)c1cccc(C(=O)O)c1 [Compound 47]	pKi	4.70
COc1ccc2c(c1)[C@@]1(C)CCN(C)C(C2)[C@]1(O)c1cccc(C(N)=O)c1 [Compound 63]	pKi	6.47
CN1CC[C@]2(C)c3cc(O)ccc3CC1[C@H]2COc1ccc(C(N)=O)cc1 [Compound 44]	pKi	6.78
CN1CC[C@@]2(C)c3cc(O)ccc3C[C@@H]1[C@H]2NCCc1ccc(S(N)(=O)=O)cc1 [Compound 94]	pKi	7.77

----------
In this section we review reported Emax values for a set of molecules.
target: μ-opioid receptor (Homo sapiens, UniProt P35372); assay: μ-opioid receptor [35S]GTPγS functional assay, U-2 OS cells; assay type: biochemical; parameters: expressed in transfected cells; host or cells: U-2 OS; settings: U-2 OS cells; relative to DAMGO; read-out: GTPγS μ Emax
Sequence (P35372 whole entry, species assumed): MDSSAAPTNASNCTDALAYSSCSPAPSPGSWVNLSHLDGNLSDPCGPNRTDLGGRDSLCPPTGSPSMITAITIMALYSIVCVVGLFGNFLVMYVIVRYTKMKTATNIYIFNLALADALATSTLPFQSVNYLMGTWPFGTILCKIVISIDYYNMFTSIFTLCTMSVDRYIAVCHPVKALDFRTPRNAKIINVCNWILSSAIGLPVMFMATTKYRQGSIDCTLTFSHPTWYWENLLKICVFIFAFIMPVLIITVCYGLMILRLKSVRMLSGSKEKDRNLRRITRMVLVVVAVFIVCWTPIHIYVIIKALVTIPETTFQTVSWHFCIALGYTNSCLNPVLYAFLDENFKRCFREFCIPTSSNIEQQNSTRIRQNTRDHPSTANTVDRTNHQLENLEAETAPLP

molecule	Emax, %
CN1CC[C@]2(C)c3cc(O)ccc3C[C@@H]1[C@H]2N(C)C(=O)Nc1ccc(C#N)cc1 [Compound 79]	49
CN(C(=O)Nc1ccc(C#N)cc1)[C@H]1C2Cc3ccc(O)cc3[C@@]1(C)CCN2Cc1cccc(F)c1F [Compound 89]	1.17
CN1CC[C@@]2(C)c3cc(O)ccc3C[C@@H]1[C@H]2N(C)S(=O)(=O)c1cccc(C(F)(F)F)c1 [Compound 131]	69
CN1CC[C@]2(C)c3cc(O)ccc3CC1C2N(C)CCc1ccccc1 (stereo in doubt) [Compound 29]	100
COc1ccc2c(c1)[C@@]1(C)CCN(CC3CC3)C(C2)[C@H]1N(C)C(=O)Nc1ccc(C(N)=O)cc1 [Compound 82]	31.7
CN1CC[C@]2(C)c3cc(O)ccc3C[C@H]1[C@@H]2NCCc1ccc(S(N)(=O)=O)cc1 [Compound 95]	79.7
CN(C(=O)Nc1ccc(C#N)cc1)C1C2Cc3ccc(O)cc3[C@@]1(C)CCN2Cc1ccoc1 (stereo in doubt) [Compound 90]	14

----------
Reported Emax by item:
biological target: μ-opioid receptor (Homo sapiens, UniProt P35372); test: μ-opioid receptor [35S]GTPγS functional assay, U-2 OS cells; format: biochemical; parameters: expressed in transfected cells; host or cells: U-2 OS; conditions: read-out: GTPγS μ Emax, U-2 OS cells; relative to DAMGO

smiles.string	Emax
CN1CC[C@@]2(C)c3cc(O)ccc3C[C@@H]1[C@@H]2N(C)C(=O)Cc1ccsc1	104%
CN1CC[C@@]2(C)c3cc(O)ccc3C[C@@H]1[C@H]2NCC1CCN(C(=O)OC(C)(C)C)CC1	2.5%
C[C@]12CCN(CC3CC3)[C@H](Cc3ccc(O)cc31)[C@@H]2NC(=O)c1ccsc1	3.67%
CN(C(=O)Nc1nc2cc(F)ccc2s1)[C@@H]1[C@H]2Cc3ccc(O)cc3[C@]1(C)CCN2CC1CC1	16%

Every entry's value here was drawn from patent US10138207B2.
